Cited source for all entries: patent US4716153A

# assay: Stability in Japan Pharmacopoeia 1st solution (pH 1.2) at 37° C., with or without stabilizer (TLC densitometry, 232 nm)
# Format: physicochemical
# assayConditions: jp 1st solution, pH 1.2, 1st solution pH 1.2, 37° C., 30 minutes, no stabilizer; read-out: residual amount after contact with 1st solution, 30 minutes
quantity: remaining at 0.5 h (%)
// return numeric value only (unit: %, not printed)

remaining at 0.5 h in this record for CCC(=O)OC1CC(=O)OC(C)C/C=C/C=C/C(O)C(C)CC(CC=O)C(OC2OC(C)C(OC3CC(C)(O)C(OC(=O)CC)C(C)O3)C(N(C)C)C2O)C1OC (stereo not shown) : 45

---

elution rate, pH 4 and 5 overview
# assay: Elution rate in aqueous solutions of various pH and physiological saline solution
# Assay type: physicochemical
# assayConditions: initial pH 4 and 5; after 15-minute stirring; 37° C.

elution rate, pH 4 and 5 in this record for CCCC(=O)OC1C(C)OC(OC2C(C)OC(OC3C(CC=O)CC(C)C(O)/C=C/C=C/CC(C)OC(=O)CC(O)C3OC)C(O)C2N(C)C)CC1(C)OC(=O)CC (stereo not shown) : 40-45%

elution rate, pH 4 and 5 in this record for CO[C@@H]1[C@@H](O[C@@H]2O[C@H](C)[C@@H](O[C@H]3C[C@@](C)(O)[C@@H](OC(=O)CC(C)C)[C@H](C)O3)[C@H](N(C)C)[C@H]2O)[C@@H](CC=O)C[C@@H](C)[C@@H](O)/C=C/C=C/C[C@@H](C)OC(=O)C[C@H]1OC(C)=O : 50-60%

elution rate, pH 4 and 5 in this record for CCC(=O)OC1CC(=O)OC(C)C/C=C/C=C/C(O)C(C)CC(CC=O)C(OC2OC(C)C(OC3CC(C)(O)C(OC(=O)CC)C(C)O3)C(N(C)C)C2O)C1OC (stereo not shown) : 45-60%

elution rate, pH 4 and 5 in this record for CCC(=O)O[C@H]1/C=C/C=C/C[C@@H](C)OC(=O)C[C@@H](OC(C)=O)[C@H](OC)[C@@H](O[C@@H]2O[C@H](C)[C@@H](O[C@H]3C[C@@](C)(O)[C@@H](OC(=O)CC(C)C)[C@H](C)O3)[C@H](N(C)C)[C@H]2O)[C@@H](CC=O)C[C@H]1C : 45-55%

---

# assay: Stability in Japan Pharmacopoeia 1st solution (pH 1.2) at 37° C., with or without stabilizer (TLC densitometry, 232 nm)
# Type: physicochemical
# assayConditions: jp 1st solution, pH 1.2; 1st solution, about 25 minutes; read-out: decomposition in contact with 1st solution
quantity: degraded at 25 min (%)
// return numeric value only (unit: %, not printed)

degraded at 25 min in this record for CCC(=O)O[C@H]1/C=C/C=C/C[C@@H](C)OC(=O)C[C@@H](OC(C)=O)[C@H](OC)[C@@H](O[C@@H]2O[C@H](C)[C@@H](O[C@H]3C[C@@](C)(O)[C@@H](OC(=O)CC(C)C)[C@H](C)O3)[C@H](N(C)C)[C@H]2O)[C@@H](CC=O)C[C@H]1C : 50

---

# assay: Stability in Japan Pharmacopoeia 1st solution (pH 1.2) at 37° C., with or without stabilizer (TLC densitometry, 232 nm)
# Assay type: physicochemical
# assayConditions: 200-500 mg of Asp.Na, 1st solution
# From the text: The stabilizers showing pH 3-10 used in the invention may be substances having a buffering or antacid action and showing pH 3-10, preferably 5.5-6.5. These are, for example, neutral amino acids or their basic salts, basic salts of acidic amino acids, basic amino acids,basic salts of organic carboxylic acids,basic salts of polybasic organic carboxylic acids, basic salts of uronic acid or inorganic salt antacids. […]
quantity: stability with L-aspartic acid monosodium salt (in words)

compound	measuredResult
CCC(=O)O[C@H]1/C=C/C=C/C[C@@H](C)OC(=O)C[C@@H](OC(C)=O)[C@H](OC)[C@@H](O[C@@H]2O[C@H](C)[C@@H](O[C@H]3C[C@@](C)(O)[C@@H](OC(=O)CC(C)C)[C@H](C)O3)[C@H](N(C)C)[C@H]2O)[C@@H](CC=O)C[C@H]1C	very much enhanced
CCC(=O)OC1CC(=O)OC(C)C/C=C/C=C/C(O)C(C)CC(CC=O)C(OC2OC(C)C(OC3CC(C)(O)C(OC(=O)CC)C(C)O3)C(N(C)C)C2O)C1OC (stereo not shown)	very much enhanced
CCC(=O)OC1CC(=O)OC(C)C/C=C/C=C/C(OC(C)=O)C(C)CC(CC=O)C(OC2OC(C)C(OC3CC(C)(OC(C)=O)C(OC(=O)CC)C(C)O3)C(N(C)C)C2O)C1OC (stereo not shown)	very much enhanced
CCCC(=O)OC1C(C)OC(OC2C(C)OC(OC3C(CC=O)CC(C)C(O)/C=C/C=C/CC(C)OC(=O)CC(O)C3OC)C(O)C2N(C)C)CC1(C)OC(=O)CC (stereo not shown)	very much enhanced
